Test system: LK-2
assay.overview: relative viability (nuclei count vs DMSO), 5 days (fraction); higher = more cells survive
measurement.parameters: first compound 0.2 µM
Please provide measured relative viability for the entries that follow.
One number for each entry.

CN1CCN(CCOc2cc(OC3CCOCC3)c3c(Nc4c(Cl)ccc5c4OCO5)ncnc3c2)CC1 [Saracatinib] + NC(=O)Nc1cc(-c2cccc(F)c2)sc1C(=O)N[C@H]1CCCNC1 [AZD7762] (partner 0.2 µM) :: 0.219

# batch size: 6; output relative viability per entry
1. Cc1csc(=NC2CCCCC2)n1/N=C/c1ccc(O)c(O)c1O [MIM1] + NC(=O)Nc1cc(-c2cccc(F)c2)sc1C(=O)N[C@H]1CCCNC1 [AZD7762] (partner 0.2 µM)
2. CN1CCN(CCOc2cc(OC3CCOCC3)c3c(Nc4c(Cl)ccc5c4OCO5)ncnc3c2)CC1 [Saracatinib] + CC(=O)c1c(C)c2cnc(Nc3ccc(N4CCNCC4)cn3)nc2n(C2CCCC2)c1=O [Palbociclib] (partner 0.5 µM)
3. CCNC(=O)c1noc(-c2cc(C(C)C)c(O)cc2O)c1-c1ccc(CN2CCOCC2)cc1 [Luminespib] + Cc1nc(Nc2ncc(C(=O)Nc3c(C)cccc3Cl)s2)cc(N2CCN(CCO)CC2)n1 [Dasatinib] (partner 0.075 µM)
4. CN1CCN(CCOc2cc(OC3CCOCC3)c3c(Nc4c(Cl)ccc5c4OCO5)ncnc3c2)CC1 [Saracatinib] + Nc1nc2[nH]cc(CCc3ccc(C(=O)N[C@@H](CCC(=O)O)C(=O)O)cc3)c2c(=O)[nH]1 [Pemetrexed] (partner 0.2 µM)
5. Cc1csc(=NC2CCCCC2)n1/N=C/c1ccc(O)c(O)c1O [MIM1] + Cc1nc(Nc2ncc(C(=O)Nc3c(C)cccc3Cl)s2)cc(N2CCN(CCO)CC2)n1 [Dasatinib] (partner 0.075 µM)
6. CCNC(=O)c1noc(-c2cc(C(C)C)c(O)cc2O)c1-c1ccc(CN2CCOCC2)cc1 [Luminespib] + NC(=O)Nc1cc(-c2cccc(F)c2)sc1C(=O)N[C@H]1CCCNC1 [AZD7762] (partner 0.2 µM)

Response:
[0.423, 0.405, 0.128, 0.199, 0.358, 0.0593]

----------
Tested on: NCI-H1915
assay.overview: relative viability (nuclei count vs DMSO), 5 days (fraction); higher = more cells survive
measurement.parameters: first compound 0.02 µM
Decide using relative viability alone. Strictly below 0.5: 1. Equal to or above 0.5: 0.

CN1CCN(CCOc2cc(OC3CCOCC3)c3c(Nc4c(Cl)ccc5c4OCO5)ncnc3c2)CC1 [Saracatinib] + C[C@]1(O)C[C@@H](c2nc(-c3ccc4ccc(-c5ccccc5)nc4c3)c3c(N)nccn32)C1 [Linsitinib] (partner 1 µM) :: 0
CN1CCN(CCOc2cc(OC3CCOCC3)c3c(Nc4c(Cl)ccc5c4OCO5)ncnc3c2)CC1 [Saracatinib] + O=C(c1cc(Cc2n[nH]c(=O)c3ccccc23)ccc1F)N1CCN(C(=O)C2CC2)CC1 [Olaparib] (partner 8 µM) :: 1

Query: Take the compound CN1CCN(CCOc2cc(OC3CCOCC3)c3c(Nc4c(Cl)ccc5c4OCO5)ncnc3c2)CC1 [Saracatinib] + CC1(C)CCC(c2ccc(Cl)cc2)=C(CN2CCN(c3ccc(C(=O)NS(=O)(=O)c4ccc(N[C@H](CCN5CCOCC5)CSc5ccccc5)c(S(=O)(=O)C(F)(F)F)c4)cc3)CC2)C1 [Navitoclax] (partner 0.5 µM) and say whether its relative viability is less than 0.5.
Response: 0

Query: Quick check: does CCNC(=O)c1noc(-c2cc(C(C)C)c(O)cc2O)c1-c1ccc(CN2CCOCC2)cc1 [Luminespib] + NC(=O)Nc1cc(-c2cccc(F)c2)sc1C(=O)N[C@H]1CCCNC1 [AZD7762] (partner 0.2 µM) have relative viability under 0.5?
Response: 0

Query: Is relative viability of CCNC(=O)c1noc(-c2cc(C(C)C)c(O)cc2O)c1-c1ccc(CN2CCOCC2)cc1 [Luminespib] + O=C(CCCCCCC(=O)Nc1ccccc1)NO [Vorinostat] (partner 1 µM) strictly below 0.5?
Response: 1
